# Measured On: NLRP3 inflammasome (Homo sapiens, UniProt Q96P20)
# Construct: host or cells: THP1-Null cells (PMA-differentiated, LPS-primed, nigericin-stimulated)
# Sequence (Q96P20 whole entry): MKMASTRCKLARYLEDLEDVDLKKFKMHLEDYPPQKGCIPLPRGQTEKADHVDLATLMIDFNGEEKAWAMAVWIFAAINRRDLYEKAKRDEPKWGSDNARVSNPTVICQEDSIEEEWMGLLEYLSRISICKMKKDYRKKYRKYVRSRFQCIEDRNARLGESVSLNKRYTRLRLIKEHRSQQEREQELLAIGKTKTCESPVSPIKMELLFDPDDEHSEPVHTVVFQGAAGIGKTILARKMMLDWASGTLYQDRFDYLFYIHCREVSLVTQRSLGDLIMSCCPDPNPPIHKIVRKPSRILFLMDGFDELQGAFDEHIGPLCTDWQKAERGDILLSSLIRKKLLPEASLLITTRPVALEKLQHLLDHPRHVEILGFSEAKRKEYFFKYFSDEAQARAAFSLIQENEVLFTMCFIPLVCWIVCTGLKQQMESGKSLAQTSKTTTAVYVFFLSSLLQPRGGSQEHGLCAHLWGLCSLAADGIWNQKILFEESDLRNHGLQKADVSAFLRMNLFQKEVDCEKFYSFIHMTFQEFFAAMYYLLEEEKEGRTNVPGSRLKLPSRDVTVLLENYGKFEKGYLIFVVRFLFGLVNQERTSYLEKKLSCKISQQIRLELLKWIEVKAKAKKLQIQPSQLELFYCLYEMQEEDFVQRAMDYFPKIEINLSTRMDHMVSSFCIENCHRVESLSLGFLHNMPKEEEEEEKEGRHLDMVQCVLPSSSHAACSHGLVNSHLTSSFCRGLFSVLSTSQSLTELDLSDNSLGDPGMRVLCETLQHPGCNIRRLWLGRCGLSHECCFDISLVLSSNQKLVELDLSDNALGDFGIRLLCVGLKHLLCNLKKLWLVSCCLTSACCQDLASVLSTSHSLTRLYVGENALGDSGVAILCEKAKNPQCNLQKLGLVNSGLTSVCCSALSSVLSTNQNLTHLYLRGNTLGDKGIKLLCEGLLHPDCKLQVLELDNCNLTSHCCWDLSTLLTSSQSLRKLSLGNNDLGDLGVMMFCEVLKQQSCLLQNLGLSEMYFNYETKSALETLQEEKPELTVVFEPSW
# Test Protocol: Evaluation of NLRP3 inflammasome inhibitory activity (inhibition of IL-1β production in LPS/Nigericin-stimulated THP1-Null cells, AlphaLISA)
# Assay type: cell-based
# Condition Details: IL-1β production in THP1-Null cells; PMA, 1 µg/mL Lipopolysaccharides 3 hours, Nigericin 7.5 µmol/L 1.5 hours; read-out: IC50
Label class 1 when IC50 is strictly below 80 nM; otherwise label class 0.

As a guide, the following entries are already answered.
- Molecule: "Cc1cc(C2CC2)cc(F)c1-n1cc2c(=O)[nH]c(C3CC3)nc2n1"
  Group: "class 1"
- Molecule: "Cc1cc(Br)cc(C)c1-n1cc2c(=O)[nH]c(COCC3CCOCC3)nc2n1"
  Group: "class 0"
- Molecule: "COCc1nc2nn(-c3c(C)cc(Br)cc3C)cc2c(=O)[nH]1"
  Group: "class 1"
- Molecule: "Cc1cc(C2CC2)cc(C)c1-n1nc2nc(C3CC3)[nH]c(=O)c2c1CO"
  Group: "class 1"
- Molecule: "Cc1nn(C2CCC2)c(C)c1-n1cc2c(=O)[nH]c(C3CC3)nc2n1"
  Group: "class 0"

In the record for Cc1cc(OC(F)F)cc(C)c1-n1cc2c(=O)[nH]c([C@@H](C)O)nc2n1 (single isomer, unassigned) , is IC50 less than 80 nM?
class 1

In the record for Cc1cc(Br)cc(C)c1-n1cc2c(=O)[nH]c(C34CCC(CO3)C4)nc2n1 (racemic) , is IC50 less than 80 nM?
class 0

In the record for COc1cc(C2CC2)ccc1-n1cc2c(=O)[nH]c(C3CC3)nc2n1 , is IC50 less than 80 nM?
class 1

Ref: patent EP4671247A1
